ASSAYED_SYSTEM: FGFR1 (UniProt P11362)
Sequence (P11362 whole entry, looked up): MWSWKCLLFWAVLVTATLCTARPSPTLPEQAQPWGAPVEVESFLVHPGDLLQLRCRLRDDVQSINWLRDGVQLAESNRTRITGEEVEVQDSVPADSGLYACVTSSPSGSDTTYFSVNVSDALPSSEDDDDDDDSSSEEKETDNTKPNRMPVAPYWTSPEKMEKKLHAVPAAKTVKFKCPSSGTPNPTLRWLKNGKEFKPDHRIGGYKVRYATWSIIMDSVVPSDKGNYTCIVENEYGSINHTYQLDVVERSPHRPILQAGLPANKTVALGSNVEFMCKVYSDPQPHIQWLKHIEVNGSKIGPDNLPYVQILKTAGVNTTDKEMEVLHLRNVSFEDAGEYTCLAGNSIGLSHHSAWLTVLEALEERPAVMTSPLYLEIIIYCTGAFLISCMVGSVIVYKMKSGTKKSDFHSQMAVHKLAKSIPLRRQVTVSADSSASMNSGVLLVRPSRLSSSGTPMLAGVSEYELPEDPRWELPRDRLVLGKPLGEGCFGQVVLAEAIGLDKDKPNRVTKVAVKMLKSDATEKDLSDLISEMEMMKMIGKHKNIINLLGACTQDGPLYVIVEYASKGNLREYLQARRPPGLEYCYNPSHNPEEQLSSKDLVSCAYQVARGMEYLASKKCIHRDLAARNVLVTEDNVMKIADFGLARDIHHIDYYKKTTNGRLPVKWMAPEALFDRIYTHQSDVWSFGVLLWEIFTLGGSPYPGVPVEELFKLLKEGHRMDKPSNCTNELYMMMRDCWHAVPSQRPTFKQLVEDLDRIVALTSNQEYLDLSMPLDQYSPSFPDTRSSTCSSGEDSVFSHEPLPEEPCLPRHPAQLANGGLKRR
ASSAY_TEXT: phosphorylation enrichment, bacterial display (enrichment ratio); higher = better substrate or ligand; peptides without Tyr show the background
Binary classification by phosphorylation enrichment, with 0.5 as an inclusive lower bound for label 1; all other cases are label 0.

See these solved cases before continuing.
# RESIDUES, GROUP
rows = [
    ("SHGQDYLAGNK [GSTA2_Y147_V149A]", "label 1"),
    ("SVKVYYKKCWF [EPHA7_Y202_S207F]", "label 0"),
    ("KLGDVYVNDAF [PGK1_Y161]", "label 1"),
    ("VECQVYAEDPF [PCCA_Y401_R399Q_YF]", "label 0"),
    ("EDGRLYAVKRS [PKMYT1_Y136]", "label 0"),
    ("SKEPYYVRCIK [MYO1D_Y586]", "label 1"),
]

**Query** phosphorylation enrichment >= 0.5 for SKQGKYLNWDA [ATM_Y54] ?
**Result** label 0

**Query** Please indicate if the recorded phosphorylation enrichment for GRSTFYWPRPR [GAGE12J_Y10_YF] meets or exceeds 0.5.
**Result** label 0

**Query** Hello, I need to know if HRGYLYLAIEY [TEK_Y899] has measured phosphorylation enrichment not below 0.5. Thanks!
**Result** label 1

**Query** Item RIVEIYTRRLQ [GCH1_Y175_S176T] with phosphorylation enrichment of 0.5 or above?
**Result** label 1

**Query** // inclusive: phosphorylation enrichment at least 0.5? input: RQSTLYSFFPK [MSH6_Y8]
**Result** label 1

**Query** Is reported phosphorylation enrichment greater than or equal to 0.5 here: SVEELYAIPPD [PEAK1_Y797]
**Result** label 1

* * *

Test system: c-Abl (mouse)
ASSAY_TEXT: phosphorylation enrichment, bacterial display (enrichment ratio); higher = better substrate or ligand; peptides without Tyr show the background
Rule: phosphorylation enrichment of 0.8 or more gives criterion met; anything lower gives criterion not met.

# count of solved cases: 10
# RESIDUES, ASSAYED_SYSTEM, GROUP
data = [
    ("DRPASYKKKSM [PDGFRA_Y768]", "c-Abl (mouse)", "criterion not met"),
    ("HEPKGYNANFC [TGFB2_Y341]", "c-Abl (mouse)", "criterion met"),
    ("SVTCTYSPTLN [TP53_Y126_A129T]", "c-Abl (mouse)", "criterion met"),
    ("AISEGYKDFRA [CDA_Y79_V75I]", "c-Abl (mouse)", "criterion not met"),
    ("VEDPEYAVTQP [STOML2_Y124_L129P]", "c-Abl (mouse)", "criterion met"),
    ("LVMFTYAIFGM [SCN1A_Y1684_I1683T]", "c-Abl (mouse)", "criterion met"),
    ("QFQEKYKQMEQ [HCN4_Y531_V534M_YF]", "c-Abl (mouse)", "criterion met"),
    ("DELDKYSEVLK [TPM1_Y60_A63V]", "c-Abl (mouse)", "criterion met"),
    ("RQQQDYWLMDV [ANPEP_Y600_I603M]", "c-Abl (mouse)", "criterion not met"),
    ("SRASYYRKGGC [ALK_Y1283_Y1278S]", "c-Abl (mouse)", "criterion not met"),
]

**Query** Check this sequence for phosphorylation enrichment at or above 0.8: GNEEAYGSSHI [FAM171B_Y522_R524S]
**Result** criterion met

**Query** Is reported phosphorylation enrichment greater than or equal to 0.8 here: KLQKKYGPIYS [CYP17A1_Y60]
**Result** criterion not met

**Query** Is it the case that MHDSNSVSKGS [PDGFRA_Y849_Y849S] has phosphorylation enrichment reaching or exceeding 0.8?
**Result** criterion not met

**Query** Does the reported phosphorylation enrichment for ADAHHYLCKEV [JAK2_Y382] fall at or above the 0.8 mark?
**Result** criterion not met

**Query** Say whether KEINDYVEKGT [SERPINA1_Y184_Q180E] shows phosphorylation enrichment of 0.8 or more.
**Result** criterion not met

**Query** Reported phosphorylation enrichment at or above 0.8? QMQLKYSQSDL [SMC1A_Y714_R711Q]
**Result** criterion met

**Query** Record LADKPYTFEDF [FXN_Y118_YF] ; criterion: phosphorylation enrichment no lower than 0.8. Met?
**Result** criterion not met

* * *

Entries and their phosphorylation enrichment values follow.
ASSAYED_SYSTEM: EPHB1 (UniProt P54762)
Sequence (P54762 whole entry, looked up): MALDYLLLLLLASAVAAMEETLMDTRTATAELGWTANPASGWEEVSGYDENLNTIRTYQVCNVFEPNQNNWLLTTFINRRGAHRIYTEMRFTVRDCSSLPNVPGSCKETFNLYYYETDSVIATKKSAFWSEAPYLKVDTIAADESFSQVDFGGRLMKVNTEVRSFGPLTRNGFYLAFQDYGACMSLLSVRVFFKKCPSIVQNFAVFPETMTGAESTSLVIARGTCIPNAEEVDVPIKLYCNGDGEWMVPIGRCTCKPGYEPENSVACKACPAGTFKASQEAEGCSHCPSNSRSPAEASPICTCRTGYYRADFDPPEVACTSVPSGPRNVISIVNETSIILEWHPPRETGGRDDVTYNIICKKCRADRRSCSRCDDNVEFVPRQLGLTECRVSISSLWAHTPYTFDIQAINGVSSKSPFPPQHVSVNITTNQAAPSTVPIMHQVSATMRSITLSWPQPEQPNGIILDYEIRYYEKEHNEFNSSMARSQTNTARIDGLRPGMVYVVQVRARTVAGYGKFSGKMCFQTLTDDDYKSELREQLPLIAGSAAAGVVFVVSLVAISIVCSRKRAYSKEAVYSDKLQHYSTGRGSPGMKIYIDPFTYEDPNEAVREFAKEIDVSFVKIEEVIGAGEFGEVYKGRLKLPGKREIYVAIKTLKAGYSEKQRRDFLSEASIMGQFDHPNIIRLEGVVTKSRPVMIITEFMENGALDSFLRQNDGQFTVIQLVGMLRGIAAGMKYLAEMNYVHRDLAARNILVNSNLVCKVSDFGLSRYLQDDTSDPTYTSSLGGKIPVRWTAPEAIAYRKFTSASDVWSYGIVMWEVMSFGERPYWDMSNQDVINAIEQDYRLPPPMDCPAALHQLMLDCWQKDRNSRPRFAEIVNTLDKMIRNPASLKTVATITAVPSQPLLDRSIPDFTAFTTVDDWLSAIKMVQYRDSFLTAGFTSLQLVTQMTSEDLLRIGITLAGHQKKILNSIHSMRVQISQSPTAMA
ASSAY_TEXT: phosphorylation enrichment, bacterial display (enrichment ratio); higher = better substrate or ligand; peptides without Tyr show the background
// return just the number, without any unit appended

# RESIDUES, ASSAYED_SYSTEM, phosphorylation enrichment
records = [
    ("FSMGCYEISLG [HMGCL_Y198_YF]", "EPHB1 (UniProt P54762)", 1.03),
    ("SVVVCYEPPEV [TP53_Y220_P219C]", "EPHB1 (UniProt P54762)", 0.751),
]

**Query** Please report the measured phosphorylation enrichment for EFFDGYWEFSV [ITGA2B_Y265_G267E_YF]
**Result** 0.709

**Query** Quickly give me recorded phosphorylation enrichment for CVAARYMDVKG [WFIKKN2_Y93]
**Result** 0.535

**Query** Provide phosphorylation enrichment value for the following sequence: PRQRRYVFFFS [PTEN_Y174_S170R_YF]
**Result** 0.606

**Query** Note phosphorylation enrichment for the sequence shown: ESSKAYERDLS [TTC37_Y1074_A1077D]
**Result** 0.394

**Query** Please give measured phosphorylation enrichment of the following entry: MSSHHYDYKKY [ZNF445_Y428]
**Result** 0.394

* * *

ASSAYED_SYSTEM: Fes (UniProt P07332)
Sequence (P07332 whole entry, looked up): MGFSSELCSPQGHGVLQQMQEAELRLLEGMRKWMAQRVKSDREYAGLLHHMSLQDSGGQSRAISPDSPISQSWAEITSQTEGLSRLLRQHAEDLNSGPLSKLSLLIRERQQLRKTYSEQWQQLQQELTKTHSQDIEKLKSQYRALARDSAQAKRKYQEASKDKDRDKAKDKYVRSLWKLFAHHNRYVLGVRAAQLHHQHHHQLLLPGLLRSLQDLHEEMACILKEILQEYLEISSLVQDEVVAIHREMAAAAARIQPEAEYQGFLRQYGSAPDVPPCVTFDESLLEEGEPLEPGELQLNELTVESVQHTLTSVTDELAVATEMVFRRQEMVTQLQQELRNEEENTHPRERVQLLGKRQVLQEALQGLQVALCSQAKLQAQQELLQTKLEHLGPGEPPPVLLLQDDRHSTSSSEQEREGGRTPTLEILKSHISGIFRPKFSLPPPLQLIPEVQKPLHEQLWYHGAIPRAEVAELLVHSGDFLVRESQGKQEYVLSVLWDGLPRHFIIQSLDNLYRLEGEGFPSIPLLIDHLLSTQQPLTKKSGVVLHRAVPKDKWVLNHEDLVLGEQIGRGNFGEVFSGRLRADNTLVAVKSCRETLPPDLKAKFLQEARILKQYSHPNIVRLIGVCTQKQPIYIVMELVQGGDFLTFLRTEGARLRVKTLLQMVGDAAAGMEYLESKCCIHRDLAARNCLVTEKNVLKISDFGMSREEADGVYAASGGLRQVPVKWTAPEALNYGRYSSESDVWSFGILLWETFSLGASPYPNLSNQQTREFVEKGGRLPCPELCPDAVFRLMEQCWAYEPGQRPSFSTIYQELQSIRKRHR
ASSAY_TEXT: phosphorylation enrichment, bacterial display (enrichment ratio); higher = better substrate or ligand; peptides without Tyr show the background
The entries below come with measured phosphorylation enrichment values attached.
Quick one: just the number, no unit, thanks!

Below are worked cases with known answers.
# RESIDUES, ASSAYED_SYSTEM, QUANTITATIVE_READOUT
data = [
    ("IIEDPYYGNDS [ACP1_Y132]", "Fes (UniProt P07332)", 1.22),
    ("GESKDYALHVG [SVIL_Y185]", "Fes (UniProt P07332)", 0.798),
    ("SSNLFYRCLTA [CNGA3_Y169_W171C_YF]", "Fes (UniProt P07332)", 1.36),
    ("LYNQDYPIHSV [GATM_Y227]", "Fes (UniProt P07332)", 1.23),
    ("QFQEKYKQMEQ [HCN4_Y531_V534M_YF]", "Fes (UniProt P07332)", 1.87),
    ("NTSKMYIPHTD [EXPH5_Y782_D777N]", "Fes (UniProt P07332)", 0.609),
]

**Query** Provide the reported phosphorylation enrichment (system: Fes (UniProt P07332)) for PLDGEYVTLQI [TP53_Y327_F328V]
**Result** 1.32

**Query** Lab note: record phosphorylation enrichment of VEKEKYVSFIS [JMJD1C_Y596_M591V_YF] tested on Fes (UniProt P07332).
**Result** 0.796

**Query** // fetch phosphorylation enrichment for MSLDQYSPSFP [FGFR1_Y776_P772S] ; system: Fes (UniProt P07332)
**Result** 0.782

**Query** Quote Fes (UniProt P07332) phosphorylation enrichment for entry EWQQIYTYDSG [JUP_Y20_T19I] .
**Result** 1.18

* * *

ASSAYED_SYSTEM: Grb2 SH2 (UniProt P62993)
Sequence (P62993 whole entry, looked up): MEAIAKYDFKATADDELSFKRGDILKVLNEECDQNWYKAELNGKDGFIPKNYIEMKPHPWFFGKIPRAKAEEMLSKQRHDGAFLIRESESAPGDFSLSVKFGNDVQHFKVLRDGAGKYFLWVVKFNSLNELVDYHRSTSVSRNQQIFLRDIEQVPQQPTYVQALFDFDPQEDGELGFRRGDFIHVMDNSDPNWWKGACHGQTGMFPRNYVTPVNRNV
ASSAY_TEXT: SH2 binding enrichment of the phosphorylated peptide, bacterial display (enrichment ratio); higher = better substrate or ligand; peptides without Tyr show the background
So basically every entry gets a class from its SH2 binding enrichment, ranges being Low: < 0.8; Mid: ≥ 0.8 and < 1; High: ≥ 1

# RESIDUES, ASSAYED_SYSTEM, GROUP
rows = [
    ("CTTIHQNYMCN [TP53_Y234_Y234Q]", "Grb2 SH2 (UniProt P62993)", "Mid"),
    ("NTSKMYIPHTD [EXPH5_Y782_D777N]", "Grb2 SH2 (UniProt P62993)", "Mid"),
    ("VIKDKYPKAHY [APTX_Y209_R213H]", "Grb2 SH2 (UniProt P62993)", "High"),
    ("QKMADYSNKLF [PDPR_Y104_YF]", "Grb2 SH2 (UniProt P62993)", "High"),
    ("ISHVAYLVLGK [TRRAP_Y892_R893L]", "Grb2 SH2 (UniProt P62993)", "High"),
    ("GRQGIYKENER [GPR143_Y231_T232K]", "Grb2 SH2 (UniProt P62993)", "Low"),
    ("EDGRLYAVKRS [PKMYT1_Y136]", "Grb2 SH2 (UniProt P62993)", "Mid"),
    ("PRARTYCYKQE [KLHDC9_Y175_S171R]", "Grb2 SH2 (UniProt P62993)", "High"),
    ("TKDTFHKQPMF [GBA_Y451_Y451H]", "Grb2 SH2 (UniProt P62993)", "Mid"),
    ("HITQVYGFFDE [PPP2CA_Y127_Q122H_YF]", "Grb2 SH2 (UniProt P62993)", "High"),
]

**Query** Please let me know in which category the item TEGNGYISFNE [LCP1_Y28_D24E] belongs.
**Result** Low

**Query** Which of the defined bands does the recorded SH2 binding enrichment of CTTIHYNYMRN [TP53_Y234_C238R] sit within?
**Result** High
